Cited source for all entries: paper PMC4180220

Target: P450 1A1 (Homo sapiens)
Assay: Ethoxyresorufin O-deethylation
Assay type: biochemical
Conditions: compounds of this study; log conversion of the IC50
For each of the molecules below, state its Actual (EL) logIC50 (9-logIC50), P450 1A1.
One number for each entry.

Answered examples (3):
{"columns": ["molecule", "measured result"],
 "data": [
  ["C#CCOc1cccc2oc(-c3ccccc3)cc(=O)c12", 5.7959],
  ["O=c1cc(-c2ccc(O)cc2)oc2ccccc12 [4′-HF, reference compound]", 4.7378],
  ["O=c1cc(-c2cccc(O)c2)oc2ccccc12 [3′-HF, reference compound]", 5.3010]
]}

Qu. Quick one: Actual (EL) logIC50 (9-logIC50), P450 1A1 of O=c1cc(-c2ccccc2)oc2ccc(O)cc12 [Compound 6-HF, reference compound] ?
Ans. 4.9080

###

Target: P450 1A1 (Homo sapiens, UniProt P04798)
Sequence (P04798 1-512): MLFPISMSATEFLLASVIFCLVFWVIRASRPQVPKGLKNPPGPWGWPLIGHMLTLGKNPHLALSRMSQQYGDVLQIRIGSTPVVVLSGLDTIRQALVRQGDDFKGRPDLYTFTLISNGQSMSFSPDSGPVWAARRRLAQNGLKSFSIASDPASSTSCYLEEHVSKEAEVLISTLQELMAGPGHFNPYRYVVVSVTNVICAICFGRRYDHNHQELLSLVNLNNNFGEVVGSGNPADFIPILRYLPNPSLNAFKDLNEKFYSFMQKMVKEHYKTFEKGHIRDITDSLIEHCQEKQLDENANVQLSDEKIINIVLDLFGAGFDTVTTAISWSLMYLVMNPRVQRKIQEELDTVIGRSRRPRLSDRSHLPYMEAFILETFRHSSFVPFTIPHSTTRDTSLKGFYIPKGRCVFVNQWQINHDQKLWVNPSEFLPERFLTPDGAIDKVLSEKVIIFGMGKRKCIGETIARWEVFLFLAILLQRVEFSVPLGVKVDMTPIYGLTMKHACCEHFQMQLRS
Test: Ethoxyresorufin O-deethylation
Assay type: biochemical
Conditions: compounds of this study; log conversion of the IC50
Classification field: enter 1.0 for Actual (EL) logIC50 (9-logIC50), P450 1A1 values not below 6, 0.0 for values below it.

{"columns": ["compound", "class assignment"],
 "data": [
  ["C#CCOc1ccc(-c2cc(=O)c3ccccc3o2)cc1 [4′-PF, 4′-flavone propargyl ether]", 1.0],
  ["O=c1cc(-c2ccccc2O)oc2ccccc12 [2′-HF, reference compound]", 0.0],
  ["C#CCOc1ccccc1-c1cc(=O)c2ccccc2o1 [2′-PF, 2′-flavone propargyl ether]", 1.0],
  ["C#CCOc1cccc(-c2cc(=O)c3ccccc3o2)c1 [3′-PF, 3′-flavone propargyl ether]", 1.0]
]}

Here's the next entry for you.
Qu. Hi, just wondering whether C#CCOc1ccc2oc(-c3ccccc3)cc(=O)c2c1 [Compound 6-PF, 6-flavone propargyl ether] shows Actual (EL) logIC50 (9-logIC50), P450 1A1 of 6 or higher.
Ans. 1.0

###

Molecular target: human P450 2A6 (Homo sapiens, UniProt P11509)
Sequence (P11509 1-494): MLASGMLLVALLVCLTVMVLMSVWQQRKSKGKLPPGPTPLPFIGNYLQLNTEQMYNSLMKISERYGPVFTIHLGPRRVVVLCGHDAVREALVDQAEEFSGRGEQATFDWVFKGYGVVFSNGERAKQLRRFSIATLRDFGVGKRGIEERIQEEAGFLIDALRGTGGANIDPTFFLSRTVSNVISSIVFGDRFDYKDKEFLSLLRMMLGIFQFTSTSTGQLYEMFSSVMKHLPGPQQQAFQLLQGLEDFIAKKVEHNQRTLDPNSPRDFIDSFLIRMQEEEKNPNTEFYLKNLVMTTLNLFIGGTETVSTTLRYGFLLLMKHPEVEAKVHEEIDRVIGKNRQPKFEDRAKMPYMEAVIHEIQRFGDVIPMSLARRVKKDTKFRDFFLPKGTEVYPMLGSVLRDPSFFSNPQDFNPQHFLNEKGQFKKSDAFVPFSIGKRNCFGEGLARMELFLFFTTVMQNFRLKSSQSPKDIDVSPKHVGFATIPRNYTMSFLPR
Test: Coumarin 7-hydroxylation inhibition assay
Type: biochemical
value type: IC50

{"columns": ["compound", "target or system", "value type", "measured result"],
 "data": [
  ["C#CCOc1ccc2c(c1)C(=O)CC(c1ccccc1)O2 (stereo not shown)", "human P450 2A6 (Homo sapiens, UniProt P11509)", "IC50", "> 10 µM"],
  ["O=c1cc(-c2ccccc2)oc2cccc(O)c12 [Compound 5-HF, 5-hydroxy flavone, reference compound]", "human P450 2A6 (Homo sapiens, UniProt P11509)", "IC50", "> 50 µM"],
  ["O=c1cc(-c2ccccc2)oc2cc(O)ccc12 [Compound 7-HF, 7-hydroxy flavone, reference compound]", "human P450 2A6 (Homo sapiens, UniProt P11509)", "IC50", "> 50 µM"]
]}

Qu. So what IC50 did C#CCOc1ccc2c(c1)OC(c1ccccc1)CC2=O (stereo not shown) get with human P450 2A6 (Homo sapiens, UniProt P11509)?
Ans. > 10 µM
